Provide the recorded inhibition for the entries that follow.
# measurement_notes: growth inhibition of RCMB18 medulloblastoma cells, cell-based, cisplatin and BGB IC40 combos (AID 1671462);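 also: cells exposed to compound for four days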
# condition_summary: measured here: combination with cisplatin, at 0.5 µM, stronger effect = higher value
Numbers only, in %.

molecule: O=C(O)CCCc1ccc(N(CCCl)CCCl)cc1
inhibition (%): -40
//
molecule: CN(C)NC(=O)CCC(=O)O
inhibition (%): 15.6
//
molecule: Cn1c(CCCC(=O)O)nc2cc(N(CCCl)CCCl)ccc21
inhibition (%): 15.5
//
molecule: O=c1[nH]c(=O)n(C2OC(CO)C(O)C2O)cc1F (stereo unspecified)
inhibition (%): 45.3

Respectfully, I request inhibition for each entry included below.
1. CCC1(c2ccccc2)C(=O)NC(=O)NC1=O
2. NC(Cc1ccc(N(CCCl)CCCl)cc1)C(=O)O (stereo unspecified)

Response given:
[-11.9, -31.6]
